- experimental target: TcPRAC (Trypanosoma cruzi)
- Sequence (Q4DA80 32-423): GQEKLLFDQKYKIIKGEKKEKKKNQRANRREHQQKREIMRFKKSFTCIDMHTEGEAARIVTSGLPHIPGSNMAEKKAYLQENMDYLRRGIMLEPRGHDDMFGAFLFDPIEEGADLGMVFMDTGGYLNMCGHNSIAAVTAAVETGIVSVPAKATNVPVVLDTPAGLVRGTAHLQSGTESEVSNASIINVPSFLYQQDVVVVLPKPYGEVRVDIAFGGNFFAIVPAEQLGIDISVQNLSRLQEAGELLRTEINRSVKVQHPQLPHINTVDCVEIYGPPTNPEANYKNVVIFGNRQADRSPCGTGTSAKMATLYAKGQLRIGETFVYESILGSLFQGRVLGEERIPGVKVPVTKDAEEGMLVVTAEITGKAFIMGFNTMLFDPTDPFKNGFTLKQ
pIC50: −log10 of the molar value.

>  <substance smiles>
O=C(O)c1ccc[nH]1

>  <pIC50>
~5.00

$$$$
